- Procedure summary: Single intravenous dose escalation of P5P, plasma pharmacokinetics (Examples Two and Three)
- Assay type: in vivo, human
- Cond: both sexes, human, plasma, iv, 5 mg/kg, Group 2, P5P 5 mg/kg single iv; plasma P5P; mean; read-out: AUC (O-t)
- Method: A phase one clinical trial was conducted to compare the pharmacokinetics of intravenously administered P5P and orally administered P5P. The trial was a single dose escalation study. […] P5P, pyridoxal, and 4-pyridoxic acid were evaluated in both plasma and urine over a 24 hour interval following either intravenous or oral dosing. […] Concentrations of pyridoxal-5′-phosphate (P5P) were measured from the plasma samples collected over a 24-bour interval after dosing in each phase. […]
Quantity name: AUC (µg·h/mL)
Your answer is read as µg·h/mL, so omit the unit and give the number.

Task item: State the recorded AUC for this entry: Cc1ncc(COP(=O)(O)O)c(C=O)c1O [P5P, Pyridoxal 5′-phosphate, reference compound]
Reply: 173

* * *

- Procedure summary: Single intravenous dose escalation of P5P, plasma pharmacokinetics (Examples Two and Three)
- Assay type: in vivo, human
- Cond: Group 4, P5P 20 mg/kg single iv; plasma PAL; mean
Quantity name: Kel (h⁻¹)
Your answer is read as h⁻¹, so omit the unit and give the number.

Task item: State the recorded Kel for this entry: Cc1ncc(CO)c(C=O)c1O [PAL, pyridoxal]
Reply: 0.177

* * *

- Procedure summary: Single intravenous dose escalation of P5P, plasma pharmacokinetics (Examples Two and Three)
- Type: in vivo, human
- Cond: both sexes, human, plasma, iv, 1 mg/kg, Group 1, P5P 1 mg/kg single iv; plasma PA; mean
Quantity name: Cmax (ng/mL)
Your answer is read as ng/mL, so omit the unit and give the number.

Task item: State the recorded Cmax for this entry: Cc1ncc(CO)c(C(=O)O)c1O [PA, 4-pyridoxic acid]
Reply: 419

* * *

- Procedure summary: Single intravenous dose escalation of P5P, plasma pharmacokinetics (Examples Two and Three)
- Assay type: in vivo, human
- Cond: both sexes, human, plasma, iv, 5 mg/kg, Group 2, P5P 5 mg/kg single iv; plasma P5P; mean
Quantity name: Cmax (µg/mL)
Your answer is read as µg/mL, so omit the unit and give the number.

Task item: State the recorded Cmax for this entry: Cc1ncc(COP(=O)(O)O)c(C=O)c1O [P5P, Pyridoxal 5′-phosphate, reference compound]
Reply: 98.8

* * *

- Procedure summary: Single intravenous dose escalation of P5P, plasma pharmacokinetics (Examples Two and Three)
- Format: in vivo, human
- Cond: both sexes, human, plasma, iv, 10 mg/kg, Group 3, P5P 10 mg/kg single iv; plasma PAL; mean
Quantity name: Tmax (min)
Your answer is read as min, so omit the unit and give the number.

Task item: State the recorded Tmax for this entry: Cc1ncc(CO)c(C=O)c1O
Reply: 25.2

* * *

- Procedure summary: Single intravenous dose escalation of P5P, plasma pharmacokinetics (Examples Two and Three)
- Format: in vivo, human
- Cond: Group 2, P5P 5 mg/kg single iv; plasma PA; mean
- Method: A phase one clinical trial was conducted to compare the pharmacokinetics of intravenously administered P5P and orally administered P5P. The trial was a single dose escalation study. […] P5P, pyridoxal, and 4-pyridoxic acid were evaluated in both plasma and urine over a 24 hour interval following either intravenous or oral dosing. […] Concentrations of pyridoxal-5′-phosphate (P5P) were measured from the plasma samples collected over a 24-bour interval after dosing in each phase. […]
Quantity name: Kel (h⁻¹)
Your answer is read as h⁻¹, so omit the unit and give the number.

Task item: State the recorded Kel for this entry: Cc1ncc(CO)c(C(=O)O)c1O
Reply: 0.332
